The measurements presented in this section are drawn from patent US20210253718A1.

- EXPERIMENTAL_TARGET: T1, FZD1 CRD (Homo sapiens, UniProt Q9UP38)
- T1 construct: D112-P238; GPI anchor signal (C); expressed in transfected cells; host or cells: CHO cells, lentiviral pLenti-puro
- EXPERIMENT_DESCRIPTION: Immunofluorescence of anti-FZD5 Fab binding to CHO cells overexpressing Frizzled CRD
- Set-up: key: −: no binding; +: very weak binder; ++: weak binder; +++: good binder; ++++: very good binder
QUANTITY_KIND: Immunofluorescence binding, Frizzled CRD overexpressed on CHO cells: FZD1

Fab-2923: anti-FZD5 Fab with antibody variable region Fv-2923; CDR SEQ ID NOs: 35, 36, 62, 100, 138, 162 (antibody, V domains shown) VH: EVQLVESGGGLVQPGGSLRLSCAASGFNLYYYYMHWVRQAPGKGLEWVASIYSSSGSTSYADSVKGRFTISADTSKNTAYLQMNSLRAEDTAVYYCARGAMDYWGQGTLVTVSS VL: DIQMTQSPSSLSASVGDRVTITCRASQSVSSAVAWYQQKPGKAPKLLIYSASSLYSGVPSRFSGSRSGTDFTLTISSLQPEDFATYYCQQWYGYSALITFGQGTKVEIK: −
Fab-2932: anti-FZD5 Fab with antibody variable region Fv-2932; CDR SEQ ID NOs: 35, 36, 71, 108, 147, 153 (antibody, V domains shown) VH: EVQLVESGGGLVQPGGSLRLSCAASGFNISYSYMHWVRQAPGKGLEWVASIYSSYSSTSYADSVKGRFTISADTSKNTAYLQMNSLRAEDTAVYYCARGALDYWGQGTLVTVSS VL: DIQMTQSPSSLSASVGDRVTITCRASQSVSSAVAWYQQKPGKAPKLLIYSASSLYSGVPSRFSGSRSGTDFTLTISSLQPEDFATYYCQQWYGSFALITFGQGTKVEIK: −
